# measured_on: T1, EsCas13d, nuclease-dead (Eubacterium siraeum, UniProt B0MS50, R295A;H300A;R849A;H854A)
# T1 sequence: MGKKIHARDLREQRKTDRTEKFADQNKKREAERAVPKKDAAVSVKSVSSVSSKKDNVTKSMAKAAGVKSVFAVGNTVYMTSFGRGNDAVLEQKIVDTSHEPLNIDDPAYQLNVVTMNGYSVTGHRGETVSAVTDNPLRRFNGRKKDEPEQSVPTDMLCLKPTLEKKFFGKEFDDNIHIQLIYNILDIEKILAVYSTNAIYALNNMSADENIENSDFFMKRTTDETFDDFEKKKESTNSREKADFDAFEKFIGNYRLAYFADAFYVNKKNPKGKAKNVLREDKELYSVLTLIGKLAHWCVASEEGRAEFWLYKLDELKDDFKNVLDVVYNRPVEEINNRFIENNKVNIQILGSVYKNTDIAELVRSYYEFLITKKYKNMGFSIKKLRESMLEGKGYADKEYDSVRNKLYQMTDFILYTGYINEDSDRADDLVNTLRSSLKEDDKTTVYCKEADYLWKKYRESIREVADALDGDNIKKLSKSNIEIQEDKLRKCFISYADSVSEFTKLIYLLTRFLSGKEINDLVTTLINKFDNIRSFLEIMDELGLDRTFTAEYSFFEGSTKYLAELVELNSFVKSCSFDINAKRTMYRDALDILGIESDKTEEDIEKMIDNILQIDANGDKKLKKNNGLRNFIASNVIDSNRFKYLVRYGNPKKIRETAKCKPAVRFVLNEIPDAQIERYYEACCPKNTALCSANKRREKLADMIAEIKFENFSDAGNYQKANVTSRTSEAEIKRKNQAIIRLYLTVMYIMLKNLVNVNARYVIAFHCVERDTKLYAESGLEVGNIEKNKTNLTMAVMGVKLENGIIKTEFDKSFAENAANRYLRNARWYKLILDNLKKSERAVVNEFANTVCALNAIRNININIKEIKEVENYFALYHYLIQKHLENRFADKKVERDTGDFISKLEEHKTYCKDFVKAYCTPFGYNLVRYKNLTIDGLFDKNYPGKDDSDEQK
# experiment_notes: crRNA (strand 1, pre-loaded); Mg2+; 40 mM Tris-HCl pH 7.5, 150 mM NaCl, 6 mM MgCl2, 1 mM DTT, 0.1% Tween-20, 0.2 mg/ml BSA; 25 C; 10 min per concentration, then washed
# stated_conditions: tags: His6-TwinStrep-SUMO cleaved; N-terminal SNAP kept (SNAP-Surface 488); label: 3' end held by stalled T7 RNA polymerase
pKd: −log10 of the molar value.

{"binder": "target 1 insG 3' of 6,insC 3' of 1 (mixed) RNA 1: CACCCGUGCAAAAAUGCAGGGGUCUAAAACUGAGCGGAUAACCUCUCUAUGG RNA 2: GGGAAUGGAUCCACAUCUACGAAUUCGUACCAUAGAGAGGUUAUCCGGCUCACCCGAGAUCGGAAGAGCACACGU", "pKd": 7.88}
{"binder": "target 2 MT 5'PFS GUU 3'PFS CUA (mixed) RNA 1: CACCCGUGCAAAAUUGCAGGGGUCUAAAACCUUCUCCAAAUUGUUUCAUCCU RNA 2: GGGAAUGGAUCCACAUCUACGAAUUCGUUAGGAUGAAACAAUUUGGAGAAGCUAAGAUCGGAAGAGCACACGU", "pKd": 7.85}
{"binder": "target 1 insU 3' of 9 (mixed) RNA 1: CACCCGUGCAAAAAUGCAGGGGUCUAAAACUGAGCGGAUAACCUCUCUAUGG RNA 2: GGGAAUGGAUCCACAUCUACGAAUUCGUACCAUAGAGAGGUUAUUCCGCUCACCGAGAUCGGAAGAGCACACGU", "pKd": 7.88}
{"binder": "target 2 MT 5'PFS GGA 3'PFS UGU (mixed) RNA 1: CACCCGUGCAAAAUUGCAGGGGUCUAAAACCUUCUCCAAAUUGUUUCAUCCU RNA 2: GGGAAUGGAUCCACAUCUACGAAUUCGGAAGGAUGAAACAAUUUGGAGAAGUGUAGAUCGGAAGAGCACACGU", "pKd": 7.79}
{"binder": "target 1 insC 3' of 13,insU 3' of 7 (mixed) RNA 1: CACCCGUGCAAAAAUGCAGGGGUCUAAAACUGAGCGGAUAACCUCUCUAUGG RNA 2: GGGAAUGGAUCCACAUCUACGAAUUCGUACCAUAGAGAGCGUUAUCUCGCUCACCGAGAUCGGAAGAGCACACGU", "pKd": 7.59}
{"binder": "target 1 insG 3' of 21,insA 3' of 15 (mixed) RNA 1: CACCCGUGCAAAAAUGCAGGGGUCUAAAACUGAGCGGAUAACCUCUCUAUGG RNA 2: GGGAAUGGAUCCACAUCUACGAAUUCGUACCGAUAGAGAAGGUUAUCCGCUCACCGAGAUCGGAAGAGCACACGU", "pKd": 7.43}
{"binder": "target 1 C4G,U10G (mixed) RNA 1: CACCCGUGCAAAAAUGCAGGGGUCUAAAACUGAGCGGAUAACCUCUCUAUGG RNA 2: GGGAAUGGAUCCACAUCUACGAAUUCGUACCAUAGAGAGGUGAUCCGGUCACCGAGAUCGGAAGAGCACACGU", "pKd": 7.87}
{"binder": "target 1 insC 3' of 11,insA 3' of 8 (mixed) RNA 1: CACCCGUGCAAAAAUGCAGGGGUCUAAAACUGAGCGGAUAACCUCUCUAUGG RNA 2: GGGAAUGGAUCCACAUCUACGAAUUCGUACCAUAGAGAGGUCUAUACCGCUCACCGAGAUCGGAAGAGCACACGU", "pKd": 7.38}
{"binder": "target 1 insC 3' of 16,insG 3' of 3 (mixed) RNA 1: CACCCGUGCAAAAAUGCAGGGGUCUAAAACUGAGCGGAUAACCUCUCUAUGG RNA 2: GGGAAUGGAUCCACAUCUACGAAUUCGUACCAUAGACGAGGUUAUCCGCUGCACCGAGAUCGGAAGAGCACACGU", "pKd": 7.30}
{"binder": "target 2 MT 5'PFS GGC 3'PFS CGC (mixed) RNA 1: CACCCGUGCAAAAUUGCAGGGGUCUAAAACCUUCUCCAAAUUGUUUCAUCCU RNA 2: GGGAAUGGAUCCACAUCUACGAAUUCGGCAGGAUGAAACAAUUUGGAGAAGCGCAGAUCGGAAGAGCACACGU", "pKd": 7.90}
{"binder": "target 2 MT 5'PFS AUA 3'PFS UAA (mixed) RNA 1: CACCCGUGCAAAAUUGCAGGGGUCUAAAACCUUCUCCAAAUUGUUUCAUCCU RNA 2: GGGAAUGGAUCCACAUCUACGAAUUCAUAAGGAUGAAACAAUUUGGAGAAGUAAAGAUCGGAAGAGCACACGU", "pKd": 8.26}
{"binder": "target 3 C6U (mixed) RNA 1: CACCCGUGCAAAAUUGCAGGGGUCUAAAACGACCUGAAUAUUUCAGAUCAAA RNA 2: GGGAAUGGAUCCACAUCUACGAAUUCGUUUUUGAUCUGAAAUAUUUAGGUCUGCAGAUCGGAAGAGCACACGU", "pKd": 7.88}
{"binder": "target 1 insU 3' of 5,insU 3' of 5 (mixed) RNA 1: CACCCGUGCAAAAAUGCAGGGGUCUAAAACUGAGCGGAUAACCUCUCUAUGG RNA 2: GGGAAUGGAUCCACAUCUACGAAUUCGUACCAUAGAGAGGUUAUCCGUUCUCACCGAGAUCGGAAGAGCACACGU", "pKd": 7.72}
{"binder": "target 1 insA 3' of 21,insU 3' of 20 (mixed) RNA 1: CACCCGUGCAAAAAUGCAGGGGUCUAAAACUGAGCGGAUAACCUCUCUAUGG RNA 2: GGGAAUGGAUCCACAUCUACGAAUUCGUACCAAUUAGAGAGGUUAUCCGCUCACCGAGAUCGGAAGAGCACACGU", "pKd": 7.71}
{"binder": "target 3 insG 3' of 10,insU 3' of 3 (mixed) RNA 1: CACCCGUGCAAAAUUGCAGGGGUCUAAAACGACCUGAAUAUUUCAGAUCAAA RNA 2: GGGAAUGGAUCCACAUCUACGAAUUCGUUUUUGAUCUGAAAUGAUUCAGGUUCUGCAGAUCGGAAGAGCACACGU", "pKd": 6.95}
